Reference source: ChEMBL document CHEMBL1156777

Test system: L6
Experiment: Cytotoxicity against rat L6 cells after 70 hrs by alamar blue assay
Format: cell-based
Conditions: L6, 70 h
This section presents molecules with their documented IC50 values.

smiles data: Cl.Cl.N=C(N)c1cccc(-c2cn(-c3cccc(C(=N)N)c3)nn2)c1
IC50: 219 µM
//
smiles data: COc1cc(C(=N)NC(C)C)ccc1-n1cc(-c2cccc(C(=N)NC(C)C)c2)nn1
IC50: > 159 µM
//
smiles data: CC(C)NC(=N)c1cccc(-c2cn(-c3ccc(C(=N)NC(C)C)cc3O)nn2)c1
IC50: > 187 µM
//
smiles data: COc1ccc(C(=N)NC(C)C)cc1-n1cc(-c2cccc(C(=N)NC(C)C)c2)nn1
IC50: 131 µM
//
smiles data: COc1cc(C2=NCCN2)ccc1-c1cn(-c2ccc(C3=NCCN3)cc2)nn1
IC50: 142 µM
//
smiles data: Oc1cc(C2=NCCN2)ccc1-c1cn(-c2cccc(C3=NCCN3)c2)nn1
IC50: > 183 µM
//
smiles data: COc1ccc(C2=NCCN2)cc1-c1cn(-c2cccc(C3=NCCN3)c2)nn1.Cl.Cl
IC50: > 176 µM
//
smiles data: COc1cc(C(=N)N)ccc1-n1cc(-c2ccc(C(=N)N)cc2)nn1.Cl.Cl
IC50: > 183 µM
//
smiles data: COc1cc(C(=N)NC(C)C)ccc1-c1cn(-c2cccc(C(=N)NC(C)C)c2)nn1
IC50: > 170 µM
//
smiles data: COc1ccc(C(=N)N)cc1-c1cn(-c2ccc(C(=N)N)cc2)nn1.Cl.Cl
IC50: > 198 µM
//
smiles data: COc1cc(C(=N)N)ccc1-c1cn(-c2ccc(C(=N)N)cc2)nn1.Cl.Cl
IC50: 59.4 µM
//
smiles data: N=C(N)c1cccc(-c2cn(-c3cc(C(=N)N)ccc3O)nn2)c1
IC50: > 209 µM
//
smiles data: COc1ccc(C(=N)NC(C)C)cc1-c1cn(-c2ccc(C(=N)NC(C)C)cc2)nn1
IC50: > 177 µM
//
smiles data: Cl.Cl.N=C(N)c1cccc(-c2cn(-c3ccc(C(=N)N)cc3O)nn2)c1
IC50: > 209 µM
//
smiles data: CC(C)NC(=N)c1ccc(-c2cn(-c3ccc(C(=N)NC(C)C)cc3)nn2)cc1.Cl.Cl
IC50: > 183 µM
//
smiles data: COc1ccc(C2=NCCN2)cc1-c1cn(-c2ccc(C3=NCCN3)cc2)nn1.Cl.Cl
IC50: > 188 µM
//
smiles data: Oc1ccc(C2=NCCN2)cc1-n1cc(-c2ccc(C3=NCCN3)cc2)nn1
IC50: > 175 µM
//
smiles data: Cl.Cl.Oc1cc(C2=NCCN2)ccc1-c1cn(-c2ccc(C3=NCCN3)cc2)nn1
IC50: > 190 µM
//
smiles data: COc1cc(C(=N)N)ccc1-c1cn(-c2cccc(C(=N)N)c2)nn1.Cl.Cl
IC50: 164 µM
//
smiles data: COc1ccc(C(=N)N)cc1-c1cn(-c2cccc(C(=N)N)c2)nn1
IC50: > 200 µM

----------
Each item that follows carries a reported selectivity ratio.
Experiment: Selectivity index, ratio of IC50 for rat L6 cells to IC50 for Plasmodium falciparum K1
Format: toxicity, cell-based
Settings: read-out: Ratio IC50

smiles data: COc1ccc(C(=N)N)cc1-n1cc(-c2cccc(C(=N)N)c2)nn1.Cl.Cl
selectivity ratio: > 8000
--
smiles data: Cl.Cl.N=C(N)c1cccc(-c2cn(-c3ccc(C(=N)N)cc3O)nn2)c1
selectivity ratio: > 1190
--
smiles data: c1cc(C2=NCCN2)cc(-c2cn(-c3cccc(C4=NCCN4)c3)nn2)c1
selectivity ratio: > 540
--
smiles data: Oc1ccc(C2=NCCN2)cc1-c1cn(-c2cccc(C3=NCCN3)c2)nn1
selectivity ratio: > 3520
--
smiles data: Cl.Cl.N=C(N)c1ccc(-n2cc(-c3cccc(C(=N)N)c3)nn2)cc1
selectivity ratio: 2870
